Molecular target: Superoxide dismutase [Cu-Zn] (Homo sapiens)
Sequence (P00441 whole entry): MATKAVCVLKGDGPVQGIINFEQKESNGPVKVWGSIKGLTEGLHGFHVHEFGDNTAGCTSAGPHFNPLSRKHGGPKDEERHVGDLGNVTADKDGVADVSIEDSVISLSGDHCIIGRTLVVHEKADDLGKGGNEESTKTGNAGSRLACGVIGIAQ
IC50 overview

Cl.Cl.Cl.Cl.Cl.Cl.c1ccc2nc(CNCCN(CCNCc3ccc4ccccc4n3)CCNCc3ccc4ccccc4n3)ccc2c1 ... > 100 µM

Now take the following molecule into account.
INPUT: Entry `Cl.Cl.Cl.NCCN(CCN)CCNCc1ccc2c(c1)Cc1ccccc1-2` : reported IC50 = ?
OUTPUT: > 100 µM

---

selectivity ratio listing for selected compounds.
Test: Selectivity index, ratio of IC50 for African green monkey Vero cells to IC50 for Trypanosoma cruzi MHOM/Pe/2011/Arequipa DTU 5 epimastigotes
Assay type: toxicity
Conditions: read-out: Ratio IC50
Quick one: just the number, no unit, thanks!

c1ccc2c(CNCCN(CCNCc3ccnc4ccccc34)CCNCc3ccnc4ccccc34)ccnc2c1 ... 16.7
NCCN(CCN)CCNCc1ccc2ccccc2c1 ... 4.8
Cl.Cl.Cl.Cl.Cl.Cl.c1ccc2nc(CNCCN(CCNCc3ccc4ccccc4n3)CCNCc3ccc4ccccc4n3)ccc2c1 ... 110

Turning now to a further record.
INPUT: Entry under review: `Cl.Cl.Cl.NCCN(CCN)CCNCc1ccc2c(c1)Cc1ccccc1-2` . Reported selectivity ratio?
OUTPUT: 66.3

---

Tested on: Vero
Test: Cytotoxicity against African green monkey Vero cells assessed as reduction in cell viability after 48 to 72 hrs by resazurin dye based assay
Settings: Chlorocebus sabaeus
Metric: log10 IC50 (log10 of the value in µM)
Response schema: value (number) is log10 of IC50 in units of µM.

Examples with their reported log10 IC50 follow.
NCCN(CCN)CCNCc1ccc2ccccc2c1 ... 2.31
c1ccc2cc(CNCCN(CCNCc3ccc4ccccc4c3)CCNCc3ccc4[nH]ncc4c3)ccc2c1 ... 1.35
Cl.Cl.Cl.Cl.Cl.Cl.c1ccc2nc(CNCCN(CCNCc3ccc4ccccc4n3)CCNCc3ccc4ccccc4n3)ccc2c1 ... 3.19
c1ccc2c(CNCCN(CCNCc3ccnc4ccccc34)CCNCc3ccnc4ccccc34)ccnc2c1 ... 2.30
NCCN(CCN)CCNCc1ccc2ccc3cccc4ccc1c2c34 ... 1.52
CN(C)c1cccc2c(S(=O)(=O)NCCN(CCN)CCN)cccc12 ... 2.14
c1ccc(-c2n[nH]cc2CNCCN(CCNCc2c[nH]nc2-c2ccccc2)CCNCc2c[nH]nc2-c2ccccc2)cc1 ... 2.83
NCCN(CCN)CCNCc1c2ccccc2cc2ccccc12 ... 1.31
NCCCNCCN(CCNCCCN)CCNCCCN ... 3.07

Now consider the entry below.
INPUT: Field request: log10 IC50 | item: `Cl.Cl.Cl.NCCN(CCN)CCNCc1ccc2c(c1)Cc1ccccc1-2`
OUTPUT: 3.25

---

Experiment: Selectivity index, ratio of IC50 for African green monkey Vero cells to IC50 for Trypanosoma cruzi IRHOD/CO/2008/SN3 DTU 1 trypomastigotes derived from infected Balb/c albino mouse
Format: toxicity
Conditions: read-out: Ratio IC50
Below, each entry is listed with its recorded selectivity ratio.
Give your answer as a number; write no unit.

Below are worked cases with known answers.
Cl.Cl.Cl.NCCN(CCN)CCNCc1ccc2c(c1)Cc1ccccc1-2 ... 142
NCCN(CCN)CCNCc1ccc2ccccc2c1 ... 11

Lab note: next compound to report on.
INPUT: Could you share which selectivity ratio value was measured for `Cl.Cl.Cl.Cl.Cl.Cl.c1ccc2nc(CNCCN(CCNCc3ccc4ccccc4n3)CCNCc3ccc4ccccc4n3)ccc2c1` ?
OUTPUT: 1560

---

The following compounds are listed with their measured selectivity ratio values.
Test: Selectivity index, ratio of IC50 for African green monkey Vero cells to IC50 for Trypanosoma cruzi TINF/CH/1956/Tulahuen DTU 6 amastigotes infected in African green monkey Vero cells
Type: toxicity
Settings: read-out: Ratio IC50
Please reply with the value in numeric form only.

Sample records with selectivity ratio:
NCCN(CCN)CCNCc1ccc2ccccc2c1 ... 7.7
Cl.Cl.Cl.Cl.Cl.Cl.c1ccc2nc(CNCCN(CCNCc3ccc4ccccc4n3)CCNCc3ccc4ccccc4n3)ccc2c1 ... 707

# input for lookup
INPUT: Consider the compound shown here: `Cl.Cl.Cl.NCCN(CCN)CCNCc1ccc2c(c1)Cc1ccccc1-2` What is its recorded selectivity ratio?
OUTPUT: 117

---

Experiment: Selectivity index, ratio of IC50 for African green monkey Vero cells to IC50 for Trypanosoma cruzi IRHOD/CO/2008/SN3 DTU 1 amastigotes infected in African green monkey Vero cells
Format: toxicity
Settings: read-out: Ratio IC50
Metric: selectivity ratio

For orientation, consider the following solved cases.
Cl.Cl.Cl.Cl.Cl.Cl.c1ccc2nc(CNCCN(CCNCc3ccc4ccccc4n3)CCNCc3ccc4ccccc4n3)ccc2c1 ... 1020
NCCN(CCN)CCNCc1ccc2ccccc2c1 ... 9.6

# ---- query compound ----
INPUT: Look at this compound and give its reported selectivity ratio. `Cl.Cl.Cl.NCCN(CCN)CCNCc1ccc2c(c1)Cc1ccccc1-2`
OUTPUT: 89.6
